measurement-protocol: Volume of distribution in Beagle dog at 1.0 mg/kg, iv
Format: ADME, organism-based, Canis lupus familiaris
Design: dose 1 mg/kg, route intravenous
measurement-conditions: in vivo
observable: Vd (L/kg)
# number only, unit L/kg dropped from output

Answered cases to consult:
compound-string: C[C@@H]1CCCN1CCCOc1ccc(N2CCN(C(=O)c3ccc(F)cc3F)CC2=O)cc1.O=CO
unit-spec: L/kg
Vd: 2.3
--
compound-string: N#Cc1ccc(C(=O)N2CCN(c3ccc(OC4CCN(C5CCC5)CC4)cc3)C(=O)C2)cc1.O=CO
unit-spec: L/kg
Vd: 2.3

What does the data say about its Vd? Entry: `O=C(c1ccc(F)cc1)N1CCN(c2ccc(OCCCN3CCCCC3)cc2)C(=O)C1` 2.9

###

measurement-protocol: Partition coefficient, log D at pH 7.4
Format: physicochemical
measurement-conditions: octanol/water
Reported logD values are given for each entry in this list.
The answer should be a number; do not append a unit.

Worked cases, logD given:
compound-string: N#Cc1ccc(C(=O)N2CCN(c3ccc(OCCCN4CCCCC4)cc3)C(=O)C2)cc1
logD: -0.38
//
compound-string: O=C(c1ccc(C(=O)N2CCN(c3ccc(OC4CCN(C5CCC5)CC4)cc3)C(=O)C2)cc1)N1CCC1.O=CO
logD: -0.29
//
compound-string: N#Cc1ccc(C(=O)N2CCN(c3ccc(OC4CCN(C5CCCC5)CC4)cc3)C(=O)C2)cc1
logD: 0.37
//
compound-string: C[C@@H]1CCCN1CCCOc1ccc(N2CCN(C(=O)c3cc(F)cc(F)c3)CC2=O)cc1
logD: -0.02
//
compound-string: O=C(c1ccccc1)N1CCN(c2ccc(OCCCN3CCCCC3)cc2)C(=O)C1
logD: -0.09
//
compound-string: O=C(c1ccc(F)cc1)N1CCN(c2ccc(OCCCN3CCCCC3)cc2)C(=O)C1.O=CO
logD: 0.12
//
compound-string: O=C(c1ccc(F)cc1)N1CCN(c2ccc(OCCCN3CCCC3)cc2)C(=O)C1.O=CO
logD: 0.14
//
compound-string: Cl.O=C(c1ccc(Cl)cc1)N1CCN(c2ccc(OC3CCN(C4CCC4)CC3)cc2)C(=O)C1
logD: 1.51
//
compound-string: CS(=O)(=O)c1cccc(C(=O)N2CCN(c3ccc(OCCCN4CCCCC4)cc3)C(=O)C2)c1
logD: -1.22

Now consider a different compound.
logD for `C[C@H]1CCCN1CCCOc1ccc(N2CCN(C(=O)c3ccc(C#N)cc3)CC2=O)cc1` ? -0.6

###

measurement-protocol: Cmax in CD Sprague-Dawley rat at 2.9 mg/kg, po
Type: ADME, organism-based
Parameters: dose 2.9 mg/kg, route oral
measurement-conditions: in vivo
observable: Cmax
Don't forget the unit after the value.

Look at this compound and give its reported Cmax. `Cl.O=C(c1ccc(F)cc1)N1CCN(c2ccc(OC3CCN(C4CCC4)CC3)cc2)C(=O)C1` 91 ng/mL

###

measurement-protocol: Tmax in CD Sprague-Dawley rat at 3.0 mg/kg, po
Format: ADME, organism-based
Parameters: dose 3 mg/kg, route oral
measurement-conditions: in vivo
# reported Tmax; entries follow
Expressed in h, but write only the number.

Reference set (3 entries):
compound-string: C[C@@H]1CCCN1CCCOc1ccc(N2CCN(C(=O)c3ccc(F)cc3F)CC2=O)cc1.O=CO
unit-spec: h
observed-measurement: 4
--
compound-string: C[C@@H]1CCCN1CCCOc1ccc(N2CCN(C(=O)c3ccc(C#N)cc3)CC2=O)cc1.O=CO
unit-spec: h
observed-measurement: 7
--
compound-string: O=C(c1ccc(F)cc1)N1CCN(c2ccc(OCCCN3CCCC3)cc2)C(=O)C1.O=CO
unit-spec: h
observed-measurement: 7

Tmax for `O=C(c1ccc(F)cc1)N1CCN(c2ccc(OCCCN3CCCCC3)cc2)C(=O)C1.O=CO` ? 3

Then what about the molecule `CS(=O)(=O)c1ccc(C(=O)N2CCN(c3ccc(OC4CCN(C5CCC5)CC4)cc3)C(=O)C2)cc1.O=CO` ? 4

Entry `N#Cc1ccc(C(=O)N2CCN(c3ccc(OC4CCN(C5CCC5)CC4)cc3)C(=O)C2)cc1.O=CO` please 1

###

measurement-protocol: AUC in Beagle dog at 1.0 mg/kg, iv
Format: ADME, organism-based, Canis lupus familiaris
Set-up: dose 1 mg/kg, route intravenous
measurement-conditions: plasma
Each record here notes measured AUC.
Just the number in ng·h/mL, nothing appended.

Some compounds with known AUC results, for comparison:
compound-string: N#Cc1ccc(C(=O)N2CCN(c3ccc(OC4CCN(C5CCC5)CC4)cc3)C(=O)C2)cc1.O=CO
AUC (ng·h/mL): 1100
//
compound-string: C[C@@H]1CCCN1CCCOc1ccc(N2CCN(C(=O)c3ccc(F)cc3F)CC2=O)cc1.O=CO
AUC (ng·h/mL): 2160

Which measured AUC value corresponds to `O=C(c1ccc(F)cc1)N1CCN(c2ccc(OCCCN3CCCCC3)cc2)C(=O)C1.O=CO` ? 1570

###

measurement-protocol: Ratio of drug level in brain to blood in CD Sprague-Dawley rat at 1 mg/kg, iv after 5 mins
Type: ADME, organism-based
Set-up: dose 1 mg/kg, route intravenous
measurement-conditions: brain and blood
Parameter: Kp at 5 min. Scope: all listed entries.

Field: example entries. Status: answers known.
compound-string: Cl.O=C(c1ccc(Cl)cc1)N1CCN(c2ccc(OC3CCN(C4CCC4)CC3)cc2)C(=O)C1
Kp at 5 min: 0.4
--
compound-string: N#Cc1ccc(C(=O)N2CCN(c3ccc(OC4CCN(C5CCC5)CC4)cc3)C(=O)C2)cc1.O=CO
Kp at 5 min: 0.2
--
compound-string: CC(C)(C)C(=O)N1CCN(c2ccc(OCCCN3CCCCC3)cc2)C(=O)C1.Cl
Kp at 5 min: 0.1
--
compound-string: C[C@@H]1CCCN1CCCOc1ccc(N2CCN(C(=O)c3ccc(F)cc3F)CC2=O)cc1.O=CO
Kp at 5 min: 0.2
--
compound-string: O=C(c1ccc(F)cc1)N1CCN(c2ccc(OCCCN3CCCCC3)cc2)C(=O)C1.O=CO
Kp at 5 min: 0.3

With those in mind, consider the next compound.
Requested read-out: Kp at 5 min. Entry: `O=C(c1ccc(C(=O)N2CCN(c3ccc(OC4CCN(C5CCC5)CC4)cc3)C(=O)C2)cc1)N1CCC1.O=CO` 0.1

###

measurement-protocol: AUC in CD Sprague-Dawley rat at 3.0 mg/kg, po
Format: ADME, organism-based
Set-up: dose 3 mg/kg, route oral
measurement-conditions: plasma
For each record, check the reported AUC: if it is below 800 ng·h/mL write Met, else write Not met.

Recorded results for 3 compounds are shown here.
compound-string: O=C(c1ccc(F)cc1)N1CCN(c2ccc(OCCCN3CCCC3)cc2)C(=O)C1.O=CO
class-label: Met
//
compound-string: C[C@@H]1CCCN1CCCOc1ccc(N2CCN(C(=O)c3ccc(C#N)cc3)CC2=O)cc1.O=CO
class-label: Met
//
compound-string: N#Cc1ccc(C(=O)N2CCN(c3ccc(OC4CCN(C5CCC5)CC4)cc3)C(=O)C2)cc1.O=CO
class-label: Not met

AUC strictly < 800 ng·h/mL for this compound? `CS(=O)(=O)c1ccc(C(=O)N2CCN(c3ccc(OC4CCN(C5CCC5)CC4)cc3)C(=O)C2)cc1.O=CO` Met

Now give it for `C[C@@H]1CCCN1CCCOc1ccc(N2CCN(C(=O)c3ccc(F)cc3F)CC2=O)cc1.O=CO` too. Met

###

measurement-protocol: Tmax in Beagle dog at 2.0 mg/kg, po
Type: ADME, organism-based, Canis lupus familiaris
Design: dose 2 mg/kg, route oral
measurement-conditions: in vivo
observable: Tmax (h)
Numbers only here, please. The scale is h.

Worked cases, Tmax given:
compound-string: C[C@@H]1CCCN1CCCOc1ccc(N2CCN(C(=O)c3ccc(F)cc3F)CC2=O)cc1.O=CO
Tmax / h: 4
//
compound-string: O=C(c1ccc(F)cc1)N1CCN(c2ccc(OCCCN3CCCCC3)cc2)C(=O)C1.O=CO
Tmax / h: 0.75

Moving on to the next molecule.
Fill blank: measured Tmax of the molecule `N#Cc1ccc(C(=O)N2CCN(c3ccc(OC4CCN(C5CCC5)CC4)cc3)C(=O)C2)cc1.O=CO` is ____. 1

###

measurement-protocol: Partition coefficient, log D at pH 7.4
Type: physicochemical
measurement-conditions: octanol/water
Outcome: label 1 for logD of at least -0.5; label 0 for anything lower.

Example results:
compound-string: O=C(c1ccc(F)cc1F)N1CCN(c2ccc(OCCCN3CCCC3)cc2)C(=O)C1
class-label: label 1

compound-string: Cc1ccc(C(=O)N2CCN(c3ccc(OCCCN4CCCCC4)cc3)C(=O)C2)cc1
class-label: label 1

compound-string: CS(=O)(=O)c1ccc(C(=O)N2CCN(c3ccc(OC4CCN(C5CCC5)CC4)cc3)C(=O)C2)cc1.O=CO
class-label: label 1

compound-string: O=C(c1ccc(F)cc1)N1CCN(c2ccc(OCCCN3CCCCCC3)cc2)C(=O)C1
class-label: label 1

compound-string: CC(C)N1CCC(Oc2ccc(N3CCN(C(=O)c4ccc(F)cc4F)CC3=O)cc2)CC1
class-label: label 1

Form field: logD at least -0.5? Entry: `N#Cc1ccc(C(=O)N2CCN(c3ccc(OC4CCN(C5CCC5)CC4)cc3)C(=O)C2)cc1.O=CO` label 1
